Biological target: MAGL (Homo sapiens, UniProt Q99685)
Test: 2-AG assay: MAGL hydrolysis of 2-arachidonoylglycerol to arachidonic acid, followed by mass spectrometry
Assay type: biochemical
Conditions: footnote [a]: measured in 2-AG assay
Description: Alternatively, compounds were profiled for MAGL inhibitory activity by determining the enzymatic activity by following the hydrolysis of the natural substrate 2-arachidonoylglycerol resulting in arachidonic acid, which can be followed by mass spectrometry. […] The 2-AG assay was carried out in 384 well assay plates (PP, Greiner Cat #784201) in a total volume of 20 μL. […] The activity of the compounds was calculated based on the ratio of intensities [arachidonic acid/d8-arachidonic acid].
Record form. Attribute: IC50. Fill in for each entry.
Kindly answer with a numeric value in nM, unit omitted.

Q: Can you look up the measured IC50 of CN(Cc1ccc(F)cc1Cl)C1COC2(CCN(C(=O)N3CC[C@@H]4OCC(=O)N[C@@H]4C3)CC2)C1 (single isomer, unassigned) [Example 34] for me?
A: 133

Q: Can you share its IC50? I mean this compound: Cc1ccc(COC2CC3(C2)CN(C(=O)N2CC[C@@H]4OCC(=O)N[C@@H]4C2)C3)cc1C(F)(F)F
A: 31

Q: Item under review: O=C1CO[C@H]2CCN(C(=O)N3CCC4(CC3)CN(S(=O)(=O)c3ccc(F)cc3Cl)C4)C[C@H]2N1 . Reported IC50?
A: 33.1

* * *

Molecular target: MAGL (Homo sapiens)
Sequence (Q99685 1-303): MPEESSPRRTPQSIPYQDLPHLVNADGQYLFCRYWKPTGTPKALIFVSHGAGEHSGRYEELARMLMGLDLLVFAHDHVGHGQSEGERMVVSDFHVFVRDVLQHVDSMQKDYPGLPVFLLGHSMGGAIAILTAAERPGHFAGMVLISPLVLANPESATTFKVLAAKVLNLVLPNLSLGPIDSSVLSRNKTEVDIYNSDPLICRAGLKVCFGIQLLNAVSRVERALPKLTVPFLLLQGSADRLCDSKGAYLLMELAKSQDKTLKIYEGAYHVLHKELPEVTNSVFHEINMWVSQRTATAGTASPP
Test: 2-AG assay: MAGL hydrolysis of 2-arachidonoylglycerol to arachidonic acid, followed by mass spectrometry
Assay type: biochemical
Conditions: footnote [a]: measured in 2-AG assay
Parameter measured: pIC50
A value of pIC50 is the negative decimal logarithm of a concentration given in moles per litre.

Q: Field request: pIC50 | item: O=C1CO[C@H]2CCN(C(=O)N3CC4(CC(Oc5cc(C(F)(F)F)c(C(F)(F)F)cn5)C4)C3)C[C@H]2N1
A: 8.42

Q: Query (molecule): O=C1CO[C@H]2CCN(C(=O)N3CCC4(CC3)CC(Oc3ccc(F)cc3F)C4)C[C@H]2N1 ; field requested: pIC50
A: 7.95

Q: Name the recorded pIC50 for O=C1CO[C@H]2CCN(C(=O)N3CC4(CC(OCc5ccc(C(F)(F)F)cc5F)C4)C3)C[C@H]2N1 .
A: 7.44

* * *

molecular target: MAGL (Homo sapiens, UniProt Q99685); test: MAGL inhibition, Table 1 values with no assay marker (2-AG or 4-NPA assay not stated); assay type: biochemical
Criterion: IC50 strictly less than 70 nM. Met: y. Not met: n.

Q: Quick check: IC50 of O=C1CO[C@H]2CCN(C(=O)N3CC4(CC(S(=O)(=O)c5ccc(F)cc5Cl)C4)C3)C[C@H]2N1 under 70 nM?
A: y

Q: Please let me know if O=C1CO[C@H]2CCN(C(=O)N3CC4(C3)CN(S(=O)(=O)c3ccc(C(F)(F)F)cc3C(F)(F)F)C4)C[C@H]2N1 shows IC50 below 70 nM.
A: n

Q: Identify whether the molecule O=C1CO[C@H]2CCN(C(=O)N3CC4(CC(Cc5c(F)cccc5C(F)(F)F)C4)C3)C[C@H]2N1 records IC50 below 70 nM.
A: y

Q: # check: IC50 < 70 nM for COc1ccc(N2CC3(CCN(C(=O)N4CC[C@@H]5OCC(=O)N[C@@H]5C4)C3)C2)cc1C
A: y

Q: Bench note: check whether O=C1CO[C@H]2CCN(C(=O)N3CC4(CC(c5ccc(S(F)(F)(F)(F)F)cc5)C4)C3)C[C@H]2N1 shows IC50 below 70 nM
A: y

Q: Does the reported IC50 of O=C1CO[C@H]2CCN(C(=O)N3CCC4(C3)CN(c3ccc(C(F)(F)F)cc3)C4)C[C@H]2N1 stay below 70 nM?
A: n

Q: Determine if O=C1CO[C@H]2CCN(C(=O)N3CCC4(C3)CN(c3ccnc(F)c3)C4)C[C@H]2N1 shows IC50 strictly lower than 70 nM.
A: n

Q: Strictly below 70 nM in IC50? O=C1CO[C@H]2CCN(C(=O)N3CC4(C3)CN(c3ccc(C(F)(F)F)cc3)C4)C[C@H]2N1
A: n

Q: Here's an entry: O=C1CO[C@H]2CCN(C(=O)N3CC4(CC(Cc5c(O)cccc5F)C4)C3)C[C@H]2N1 . Is its IC50 below 70 nM?
A: y

Q: In plain terms, does COc1cccc(F)c1CC1CC2(C1)CN(C(=O)N1CC[C@@H]3OCC(=O)N[C@@H]3C1)C2 come in under 70 nM for IC50?
A: y

Q: Hello, I'm reviewing records and need to know if IC50 of O=C1CO[C@H]2CCN(C(=O)N3CC4(C3)CC(OCc3ccc(C(F)(F)F)cc3F)(C(F)(F)F)C4)C[C@H]2N1 is below 70 nM. Could you check?
A: n

Q: In the record for O=C1CO[C@H]2CCN(C(=O)N3CC4(C3)CN(c3cc(C(F)(F)F)ccc3C(F)(F)F)C4)C[C@H]2N1 , is IC50 less than 70 nM?
A: n

Q: Does the reported IC50 of O=C1CO[C@H]2CCN(C(=O)N3CC4(CC(c5ccc(C(F)(F)F)cc5F)C4)C3)C[C@H]2N1 stay below 70 nM?
A: y

Q: Given CC(C)Oc1ccc(N2CC3(CCN(C(=O)N4CC[C@@H]5OCC(=O)N[C@@H]5C4)C3)C2)cc1 , is recorded IC50 strictly lower than 70 nM?
A: n

Q: Determine if O=C1CO[C@H]2CCN(C(=O)N3CC4(CC(Cc5ccc(F)cc5Cl)C4)C3)C[C@H]2N1 shows IC50 strictly lower than 70 nM.
A: y

Q: Given O=C1CO[C@H]2CCN(C(=O)N3CC4(C3)CN(S(=O)(=O)c3ccc(F)cc3C(F)(F)F)C4)C[C@H]2N1 , is recorded IC50 strictly lower than 70 nM?
A: n

Q: State whether 70 nM exceeds IC50 recorded for Cn1nccc1-c1ccc(C2CC3(C2)CN(C(=O)N2CC[C@@H]4OCC(=O)N[C@@H]4C2)C3)cc1 .
A: n

Q: Check if IC50 falls below 70 nM for O=C1CO[C@H]2CCN(C(=O)N3CC4(CC(c5ccc(N6CCCC6C(F)(F)F)cc5)C4)C3)C[C@H]2N1 (some centres unmarked) .
A: y

Q: Problem: For the molecule O=C1CO[C@H]2CCN(C(=O)N3CC4(C3)CN(S(=O)(=O)c3ccc(C(F)(F)F)c(Cl)c3)C4)C[C@H]2N1 , is IC50 under 70 nM?
A: n

Q: Does this molecule meet the criterion IC50 < 70 nM? COc1cc(C(F)(F)F)ccc1CC1CC2(C1)CN(C(=O)N1CC[C@@H]3OCC(=O)N[C@@H]3C1)C2
A: y

Q: Find out if reported IC50 for O=C1CO[C@H]2CCN(C(=O)N3CCC4(C3)CN(c3ccc(Cl)c(C(F)(F)F)c3)C4)C[C@H]2N1 is less than 70 nM
A: y

Q: Hello, I'm reviewing records and need to know if IC50 of CC(C)Oc1ccc(N2CC3(CN(C(=O)N4CC[C@@H]5OCC(=O)N[C@@H]5C4)C3)C2)cc1 is below 70 nM. Could you check?
A: n
